Data provenance: PubChem BioAssay (NCI)

system: CCRF-CEM leukemia; test: NCI tumour cell line growth inhibition, 48 h
EXPERIMENTAL READOUT: TGI (µM)
Express the result in µM but write the number alone.

Some molecules with known TGI results, for comparison:
CCCc1c(Cl)nc(Cl)nc1Cl :: 0.0921
C/C(=N\O)c1ccc2cc(Br)c3ccccc3c2c1 :: 61.1
CN(C)CC1CCC(=C2CCCC2)C1=O (configuration not stated) :: 9.54

Answer with reported TGI of NS(=O)(=O)N(c1cc(C(F)(F)F)cc(C(F)(F)F)c1)C1CCN(Cc2ccc(F)cc2)CC1
36.3

Let me know recorded TGI for COC(=O)CCCC(=O)NC1=C(Nc2ccc(OC)cc2)C(=O)c2ccccc2C1=O , thanks.
58.2

State its TGI: Cc1ccc(Nc2nc3nc[nH]c3c(=O)[nH]2)cc1CO
36.2

Using known records, supply TGI for NCCOc1ncccc1/C=C1\c2ccccc2-c2ccc(F)cc21
2.39

Read the entry CC(=O)c1sc2c(c1OC(=O)c1ccc(Cl)cc1)c(=O)n(-c1ccccc1)c(=S)n2-c1ccccc1 and write its reported TGI.
7.41

Using known records, supply TGI for C=C1C(=O)O[C@H]2[C@H]1CC/C(COC(=O)CCCCCCC(=O)OC/C1=C/CC[C@@]3(C)O[C@H]3[C@H]3OC(=O)C(=C)[C@@H]3CC1)=C\CC[C@@]1(C)O[C@@H]21
5.89

Quote TGI reported for COc1cccc(C2c3cc4c(cc3OC(NNc3ccccc3)C2C)OCO4)c1O (configuration not stated) please.
21.7

# return recorded TGI for input O=C(O/N=C1/CCCC/C1=C\c1ccccc1)c1ccc(Cl)c(Cl)c1
53.2
